Assay: in vitro
Type: cell-based, human
Settings: human
Where no end group is shown, it is not given here.
RECORDED METRIC: IC50 at 24 h (µM)
Unit µM implied. Number only.

q: Given the sequence VAIALKAAHYHTHKE [SA-XV] , what is its reported IC50 at 24 h?
a: 302

---

Test: in vitro
Conditions: 25% fetal bovine serum in RPMI media
Where no end group is shown, it is not given here.
RECORDED METRIC: half-life at 1 mg/ml

q: Given the sequence VAIALKAAHYHTHKE [SA-XV] , what is its reported half-life at 1 mg/ml?
a: > 3 h

Data provenance: paper PMC12552953
